Reported λabs maximum absorption wavelength values for the following compounds.
- ASSAY_OVERVIEW: Photophysical parameters of Sen and PPGs (UV-vis absorption, emission, energy levels)
- Format: physicochemical
- Design: unit not given here
- PROTOCOL_CONDITIONS: in toluene, 10 μM
PARAMETER_MEASURED: λabs maximum absorption wavelength

smiles_record=CC(=O)OCc1ccc2c3cccc4cccc(c5cccc1c52)c43 parameter_measured="λabs maximum absorption wavelength" value_measured=440
smiles_record=CCC1=C(CC)c2cc3[n-]c(cc4nc(cc5[n-]c(cc1n2)c(CC)c5CC)C(CC)=C4CC)c(CC)c3CC.[Pt+2] parameter_measured="λabs maximum absorption wavelength" value_measured=533
smiles_record=[Pd+2].c1ccc(-c2c3nc(c(-c4ccccc4)c4[n-]c(c(-c5ccccc5)c5nc(c(-c6ccccc6)c6[n-]c2c2ccccc62)-c2ccccc2-5)c2ccccc42)-c2ccccc2-3)cc1 parameter_measured="λabs maximum absorption wavelength" value_measured=630
smiles_record=CC(=O)OCc1c2ccccc2cc2ccccc12 parameter_measured="λabs maximum absorption wavelength" value_measured=366

###

Reported photolytic yield values for the following molecules.
- ASSAY_OVERVIEW: Photolytic molecule experiment: TTAP photolytic reaction in solution under LED, HPLC yield
- Assay type: physicochemical
- PROTOCOL_CONDITIONS: PtTNP; NIR LED light (20 mW/cm^2, 720 nm, 1 h)
PARAMETER_MEASURED: photolytic yield (%)

molecule=CC(=O)OCc1ccc2c3cccc4cccc(c5cccc1c52)c43 parameter_measured="photolytic yield" value_measured=14.7
molecule=CC(C)COC(=O)OCc1ccc2c3cccc4cccc(c5cccc1c52)c43 parameter_measured="photolytic yield" value_measured=27.8
molecule="CC(C)Cc1ccc(C(C)C(=O)OCc2ccc3c4cccc5cccc(c6cccc2c63)c54)cc1 (centres unmarked)" parameter_measured="photolytic yield" value_measured=19.4
molecule=CC(C)(C)OC(=O)N[C@@H](CSSC(C)(C)C)C(=O)OCc1ccc2c3cccc4cccc(c5cccc1c52)c43 parameter_measured="photolytic yield" value_measured=23.3
molecule=O=C(CCCc1ccc(N(CCCl)CCCl)cc1)OCc1ccc2c3cccc4cccc(c5cccc1c52)c43 parameter_measured="photolytic yield" value_measured=30.4

###

Reported ξ molar extinction coefficient values for the following compounds.
- ASSAY_OVERVIEW: Photophysical parameters of Sen and PPGs (UV-vis absorption, emission, energy levels)
- Type: physicochemical
- PROTOCOL_CONDITIONS: in toluene, 10 μM
PARAMETER_MEASURED: ξ molar extinction coefficient

smiles_record=CCC1=C(CC)c2cc3[n-]c(cc4nc(cc5[n-]c(cc1n2)c(CC)c5CC)C(CC)=C4CC)c(CC)c3CC.[Pt+2] parameter_measured="ξ molar extinction coefficient" value_measured="7.0 10^4 M^−1 cm^−1"
smiles_record=[Pd+2].c1ccc(-c2c3nc(c(-c4ccccc4)c4[n-]c(c(-c5ccccc5)c5nc(c(-c6ccccc6)c6[n-]c2c2ccccc62)-c2ccccc2-5)c2ccccc42)-c2ccccc2-3)cc1 parameter_measured="ξ molar extinction coefficient" value_measured="11.0 10^4 M^−1 cm^−1"
smiles_record=CC(=O)OCc1c2ccccc2cc2ccccc12 parameter_measured="ξ molar extinction coefficient" value_measured="1.1 10^4 M^−1 cm^−1"
smiles_record=CC(=O)OCc1ccc2c3cccc4cccc(c5cccc1c52)c43 parameter_measured="ξ molar extinction coefficient" value_measured="4.0 10^4 M^−1 cm^−1"
